Target: Etv4 Ets domain (human, UniProt P43268 338-470)
Sequence (P43268 338-470): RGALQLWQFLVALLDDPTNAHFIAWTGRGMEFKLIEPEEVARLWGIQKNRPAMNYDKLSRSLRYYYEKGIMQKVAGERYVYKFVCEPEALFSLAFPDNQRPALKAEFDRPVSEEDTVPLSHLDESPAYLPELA
Assay: EMSA; 10 mM TCEP; probe 0.1 nM (Table 3) or 0.2 nM (Fig. 9); EMSA: 50 mM Tris-HCl pH 7.5, 50 mM NaCl, 2 mM MgCl2, 0.01% Tween 20, 5% glycerol, 1 h at room temperature; proteins reduced with 10 mM TCEP unless stated; 10% native PAGE
Conditions: protein: recombinant; tags: N-terminal His6 removed by TEV (leaves SM); blunt
valueKind: Kd (nM)
Write it as a number; the unit nM goes unstated.

Prompt line: Bench note: what Kd did Etv1ALF/Etv1ALR EMSA probe (dsDNA) DNA 1: ATCTCACCGGAAGTGTAGCA DNA 2: TGCTACACTTCCGGTGAGAT show?
Response line: 0.34
